Test system: male CF-1 mice
Protocol: Lethality in mice (median lethal concentration LC50)
Assay type: in vivo, mouse (male CF-1)
Condition parameters: inhalation, 5 min
Readout: MOUSE LC50

Query: Please list MOUSE LC50 recorded for the compound FC(F)C(F)(F)COC(F)(F)F
Response: ≤ 0.5 VOL. %

Query: Could you please provide reported MOUSE LC50 for COC(F)(F)C(F)C(F)(F)F (stereo not shown) ? Thanks!
Response: > 8.0 VOL. %

Query: Output measured MOUSE LC50 for this item: FCOCC(F)(F)C(F)(F)F
Response: > 3.0 VOL. %

Query: Identify the reported MOUSE LC50 for the following entry. FC(F)OC(F)C(F)(F)C(F)(F)F (stereo not shown)
Response: > 9.9 VOL. %

---

System: male CF-1 mice
Protocol: Lethality in mice (median lethal concentration LC50)
Type: in vivo, mouse (male CF-1)
Condition parameters: inhalation, 5 min
Consider the following compounds; for each one, report its MOUSE LC50.

Query: Respond only with MOUSE LC50 recorded for FC(F)OCC(F)(F)C(F)(F)F
Response: > 4.2 VOL. %

Query: In one line, give reported MOUSE LC50 of the entry FC(F)OC(F)(F)C(F)C(F)(F)F (stereo not drawn) .
Response: > 12 VOL. %

Query: Please give measured MOUSE LC50 of the following entry: COC(C(F)F)C(F)F
Response: > 7.8 VOL. %
